Listing of recorded TGI by entry.
System: 786-0
Assay: Growth inhibition of human 786-0 cells after 48 hrs by sulforhodamine B assay
Assay type: functional
Details: 786-0, 48 h, read-out: pTGI (converted)
property: TGI (µM)

In [3]: df
Out[3]:
                                 smilesdata  property  unitstext  relationoperator  numericreadout
0  COc1cc(CNc2nc3cc(N)cc(N)c3nc2-c2ccccc2)cc(OC)c1OC       TGI         µM                 >            50.1
1  Nc1cc(N)c2nc(-c3ccccc3)c(Sc3ccc(F)cc3)nc2c1       TGI         µM                 >             100
2  Nc1cc(N)c2nc(-c3ccccc3)c(Oc3ccc(Cl)c(Cl)c3)nc2c1       TGI         µM                 =            44.7
3  COc1ccc(Sc2nc3cc(N)cc(N)c3nc2-c2ccccc2)cc1       TGI         µM                 =            30.2
4  COc1ccc(Oc2nc3cc(N)cc(N)c3nc2-c2ccccc2)cc1       TGI         µM                 >             100
5  Nc1cc(N)c2nc(-c3ccccc3)c(NCc3ccc(F)cc3)nc2c1       TGI         µM                 =            61.7
6  Nc1cc(N)c2nc(-c3ccccc3)c(NCc3ccc(Cl)c(Cl)c3)nc2c1       TGI         µM                 =            30.2
7  COc1cc(CNc2nc3cc(N)cc(N)c3nc2-c2ccccc2)cc(OC)c1       TGI         µM                 =            44.7
8  COc1cc(OC)cc(Oc2nc3cc(N)cc(N)c3nc2-c2ccccc2)c1       TGI         µM                 =            41.7
9  COc1ccc(CNc2nc3cc(N)cc(N)c3nc2-c2ccccc2)cc1OC       TGI         µM                 =            34.7

---

Each record here notes measured GI50.
Test system: SNB-75
Assay: Growth inhibition of human SNB75 cells after 48 hrs by sulforhodamine B assay
Assay type: functional
Conditions: SNB-75, 48 h
property: GI50

>>> df
                                 smilesdata  measuredtarget    result
0  Nc1cc(N)c2nc(-c3ccccc3)c(NCc3ccc(F)cc3)nc2c1          SNB-75   2.14 µM
1  COc1cc(OC)cc(Oc2nc3cc(N)cc(N)c3nc2-c2ccccc2)c1          SNB-75  0.126 µM
2  Nc1cc(N)c2nc(-c3ccccc3)c(Oc3ccc(F)cc3)nc2c1          SNB-75   23.4 µM
3  Nc1cc(N)c2nc(-c3ccccc3)c(Sc3ccc(F)cc3)nc2c1          SNB-75   20.9 µM
4  COc1cc(CNc2nc3cc(N)cc(N)c3nc2-c2ccccc2)cc(OC)c1OC          SNB-75  0.813 µM
5  COc1ccc(CNc2nc3cc(N)cc(N)c3nc2-c2ccccc2)cc1OC          SNB-75   16.2 µM
